# Lookup of reported protein stability index keyed by entry
B1: YPEL3 (parent)
chain: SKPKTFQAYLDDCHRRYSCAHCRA

Variants of: B1
Assay: protein stability index of a GFP-peptide fusion (GPS, HEK-293T) (PSI 1-6); higher = more stable;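 also: lentivirally expressed fusions sorted by FACS into six bins by GFP to DsRed ratio, PSI derived from sequencing read proportions per bin multiplied by bin number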
Details: c terminus: a fixed tail appended

// worked examples, protein stability index included
SKPKTFQYYLDDCHRRYSCAHCRA :: 2.02
YKPKTFQAYLDDCHRRYSCAHCRA :: 1.99

Ask: Would you kindly share the measured protein stability index for `SKPKTFRAYLDDCHRRYSCAHCRA` ?
Result: 2.02
